target.desc: T1, YFP-tagged human APJ receptor (human, UniProt P35414 1-380)
T1 construct: whole, on cells; also called hAPJ; APJ WT; not shown: YFP tag
T1 sequence (looked up): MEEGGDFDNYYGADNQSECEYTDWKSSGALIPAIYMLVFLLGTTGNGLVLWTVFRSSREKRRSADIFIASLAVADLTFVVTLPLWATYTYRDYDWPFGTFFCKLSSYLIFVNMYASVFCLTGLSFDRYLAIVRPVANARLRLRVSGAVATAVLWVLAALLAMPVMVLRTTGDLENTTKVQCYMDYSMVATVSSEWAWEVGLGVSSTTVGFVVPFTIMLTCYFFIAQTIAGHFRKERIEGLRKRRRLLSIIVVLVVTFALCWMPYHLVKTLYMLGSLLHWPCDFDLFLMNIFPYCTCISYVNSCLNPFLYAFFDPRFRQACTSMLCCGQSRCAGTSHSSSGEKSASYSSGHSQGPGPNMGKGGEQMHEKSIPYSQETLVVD
assay.comment: competitive radioligand binding, HEK293-hAPJ membranes
pKi: −log10 of the molar value. Numbered stars: 1 amine (or outer) side, 2 acyl side, 3 side chain; on linkers, the order of the positions; unused ones are H or OH. Bridge positions count the residues as written; N and C are the ends. Square brackets hold non-standard residues; d marks the D form. Ends that are not written are not given here. cypTyr(OBn) = 3-cyclopentyl-O-benzyl-L-tyrosine, O=C([C@H](Cc1ccc(OCc2ccccc2)c(C2CCCC2)c1)N[*:1])[*:2]; dcypTyr(OBn) = not defined here; Nle = CCCC[C@H](N)C(=O)O; B1 = not defined here; B3 = not defined here
I would appreciate it if you labelled entries Met when pKi is 9 or higher, otherwise Not met.

Examples with answers:
# binder, discrete.label
data = [
    ("Ac-KFRRQRPRLEHKKP[Nle]P[B1] (lactam 10-13; reading uncertain) [Compound 67 (KT02-18)]", "Not met"),
    ("Ac-KFRRQRPRLEHKKP[Nle]P[dcypTyr(OBn)] (lactam 10-13; reading uncertain; also: printed as Ac-K-F-R-R-Q-R-P-R-L-[E-H-K-K]-P-Nle-P-dcypTyrOBn) [Compound 65 (KT02-99)]", "Not met"),
    ("Ac-KFRRQRPRLEHKKP[Nle]P[cypTyr(OBn)] (lactam 10-13) [Compound 63 (KT02-76)]", "Met"),
]

Next, consider the following binder.
q: Decide: pKi of Ac-KFRRQRPRLEHKKP[Nle]P[B3] (lactam 10-13; reading uncertain; also: B3 structure not given here) [Compound 69 (KT02-20)] >= 9?
a: Not met
